tgt: Receptor-binding domain (RBD) of the SARS-CoV-2 spike protein, WA01/2020 strain (SARS-CoV-2, WA01/2020 strain, UniProt P0DTC2 319-541)
assayProcedure: SPR (Biacore 8K), antigen immobilized, antibody injected
pKd: −log10 of the molar value.
I would appreciate it if you labelled entries Fulfilled when pKd is 10 or higher, otherwise Not fulfilled.

Check if pKd >= 10 (inclusive). Item: antibody 2794 (antibody, V domains shown) VH: QVQLVQSGAEVKKPGSSLKVSCKASGGTFNNFAISWVRQAPGQGPEWMGRINPILSAAKYAQKFQGRLTITADKSTTTAYMELSSLRSEDTAVYYCAPTGTGESWWFDPWGQGTLVTVSS VL: QSVLTQPPSASGTPGQRVTISCSGSSSNIGTNYVYWYQQLPGTAPKVLIYGNNQRPSGVPDRFSGSKSGSSASLAISGLRSEDEADYYCAAWDDSLSGPVFGGGTKLTVL
Not fulfilled

Same read-out for antibody 1231 (antibody, V domains shown) VH: QVQLVQSGSELKKPGASVKVSCTGYGYTFTSYAMNWVRQAPGQGLEWMGWINTNTGHPAYAQGFTGRFVFSLDSSVSTAYLQISSLKAEDTAVYYCATTIRAGGYFDFWGQGTLVTVSS VL: DIQLTQSPSFLSASVGDRVTITCRASQGISSYLAWFQQKPGKAPKLLIYVVSILQSGVPSRFSGSGSGTEFTLTISSLQPEDFATYYCQQLNSYPYTFGQGTKLEIK ?
Not fulfilled

Same read-out for antibody 2706 (antibody, V domains shown) VH: QVQLVQSGAEVKKPGSSVKVSCKASGGTFSTYAISWVRQAPGQGLEWMGGIIPLFATANYAQNFQGRVTITADKSTSTAYMELSSLRSEDTAVYYCASVRLHLEELSLSHQGDYYYGLDVWGQGTTVTVSS VL: DIQMTQSPSSLSASVADRVTITCQASQDISHYLNWYQQKPGKAPQLLIYDASKLETGAPSRFSGSGSGTDFTFTISSLQPEDIATYYCQQYDHLPLTFGGGSKVEIK ?
Fulfilled

Same read-out for antibody 980 (antibody, V domains shown) VH: QVQLVESGGGVVQPGRSLRLSCAASGFTFSRYGMHWVRQAPGKGLEWVALISSGGSNKYYADSVKGRFTISRDNSKNTLYLEMNSLRAEDTAVYYCAKDAIYDYIWGAYRENWFDPWGQGTLVTVSS VL: DIQMTQSPSSLSASVGDRVTITCRASQSISNYLNWYQQKPGKAPNLLIYAASSLQSGVPSRFSGSGSGTDFTLTISSLQPEDFATYYCQQTSSPPLTFGQGTKVEIK ?
Not fulfilled
